Form field: 8OG:A repair function score (one value per entry).
B1: library; numbered along this chain (parent)
chain: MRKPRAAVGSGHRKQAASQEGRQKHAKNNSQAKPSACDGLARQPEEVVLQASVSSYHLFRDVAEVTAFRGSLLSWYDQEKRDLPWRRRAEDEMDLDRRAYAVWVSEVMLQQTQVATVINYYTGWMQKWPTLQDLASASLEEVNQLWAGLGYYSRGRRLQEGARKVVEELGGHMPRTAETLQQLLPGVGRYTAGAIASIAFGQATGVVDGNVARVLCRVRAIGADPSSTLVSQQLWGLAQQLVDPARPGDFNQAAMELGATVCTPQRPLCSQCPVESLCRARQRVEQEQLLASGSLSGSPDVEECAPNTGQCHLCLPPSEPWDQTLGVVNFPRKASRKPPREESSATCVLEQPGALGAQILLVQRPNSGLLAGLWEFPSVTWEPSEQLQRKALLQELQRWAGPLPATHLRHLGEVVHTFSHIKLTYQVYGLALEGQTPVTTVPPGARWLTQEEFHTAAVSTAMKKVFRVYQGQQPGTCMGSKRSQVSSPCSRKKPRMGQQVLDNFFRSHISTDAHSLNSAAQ

- Variants of: B1
- ASSAY PROCEDURE: 8OG:A repair function score (normalized; synonymous = 0, nonsense = -1) (normalized log-likelihood score); higher = more repair activity (WT-like);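 note: cells sorted at 72 h after reporter transfection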
- MEASUREMENT SETUP: with 8OG:A DNA repair reporter (GFP) in HEK-293 MUTYH KO cells
Answer field: number only, no words.

# count of solved cases: 8
# VARIANT NOTATION, ASSAY METRIC, RECORDED NUMBER
data = [
    ("Q232A", "8OG:A repair function score", -0.179),
    ("V230K", "8OG:A repair function score", -0.826),
    ("T439L", "8OG:A repair function score", -0.0119),
    ("D243Q", "8OG:A repair function score", -0.829),
    ("V274R", "8OG:A repair function score", -0.994),
    ("D322R", "8OG:A repair function score", -0.044),
    ("Q126L", "8OG:A repair function score", 0.0989),
    ("L430S", "8OG:A repair function score", -0.127),
]

Now let's try a different one.
Suppose we examine the variant V166D ; what 8OG:A repair function score value has been reported?
-0.293
